Below, each entry is listed with its recorded Dmax.
- tgt: VAV1 (Homo sapiens, UniProt P15498+Q96SW2)
- Construct: A heterozygous VAV1 C-terminal HiBiT knock-in pool was generated at Monte Rosa Therapeutics from a clonal Jurkat cell; endogenous in cells; host or cells: Jurkat clone stably expressing LgBiT, homozygous GSPT1-G575N; heterozygous VAV1-HiBiT knock-in pool
- test: VAV1 degradation activity, VAV1-HiBiT knock-in Jurkat luminescence assay (Example A, Table 1)
- Format: cell-based
- run-parameters: Jurkat, VAV1-HiBiT knock-in Jurkat cells, luminescence read at 6 and 24 hours; read-out: VAV1 Dmax %

- molecule: "O=C1CC[C@@](F)(c2cccc(-c3ccc(N4CCCCC4=O)cc3)c2Cl)C(=O)N1 (single isomer, unassigned)"
  tgt: "VAV1 (Homo sapiens, UniProt P15498+Q96SW2)"
  Dmax (%): 98.5
- molecule: "COC(=O)c1ccc(Cc2ccc(-c3cccc(C4CCC(=O)NC4=O)c3Cl)cc2)n1C (centres unmarked)"
  tgt: "VAV1 (Homo sapiens, UniProt P15498+Q96SW2)"
  Dmax (%): 98
- molecule: "CC1CCN(Cc2ccc(-c3cccc(C4CCC(=O)NC4=O)c3Cl)cc2)C1=O (centres unmarked)"
  tgt: "VAV1 (Homo sapiens, UniProt P15498+Q96SW2)"
  Dmax (%): 92.9
- molecule: "Cn1ccc2c1C(=O)N(Cc1ccc(-c3cccc(C4CCC(=O)NC4=O)c3Cl)cc1)CC2 (centres unmarked)"
  tgt: "VAV1 (Homo sapiens, UniProt P15498+Q96SW2)"
  Dmax (%): 96.8
- molecule: "O=C1CCC(c2cccc(-c3ccc(CN4CC5(F)CC(C5)C4=O)cc3)c2Cl)C(=O)N1 (centres unmarked)"
  tgt: "VAV1 (Homo sapiens, UniProt P15498+Q96SW2)"
  Dmax (%): 96.9
- molecule: "CN1CC(Cc2ccc(-c3cccc(C4CCC(=O)NC4=O)c3Cl)cc2)OC1=O (centres unmarked)"
  tgt: "VAV1 (Homo sapiens, UniProt P15498+Q96SW2)"
  Dmax (%): 68.3
- molecule: "O=C1CCC(c2cccc(-c3ccc(CN4CCn5cncc5C4=O)cc3)c2Cl)C(=O)N1 (centres unmarked)"
  tgt: "VAV1 (Homo sapiens, UniProt P15498+Q96SW2)"
  Dmax (%): 78
- molecule: "CN1CCN(Cc2ccc(-c3cccc(C4CCC(=O)NC4=O)c3Cl)cc2)C(=O)C1 (centres unmarked)"
  tgt: "VAV1 (Homo sapiens, UniProt P15498+Q96SW2)"
  Dmax (%): 76.8

----------
- tgt: VAV1 (Homo sapiens, UniProt P15498+Q96SW2)
- Construct: A heterozygous VAV1 C-terminal HiBiT knock-in pool was generated at Monte Rosa Therapeutics from a clonal Jurkat cell; endogenous in cells; host or cells: Jurkat clone stably expressing LgBiT, homozygous GSPT1-G575N; heterozygous VAV1-HiBiT knock-in pool
- test: VAV1 degradation activity, VAV1-HiBiT knock-in Jurkat luminescence assay (Example A, Table 1)
- Format: cell-based
- run-parameters: VAV1-HiBiT knock-in Jurkat cells, luminescence read at 6 and 24 hours; read-out: VAV1 DC50
// reported DC50 for each item listed

- compound: "O=C1CCC(c2cccc(-c3ccc(Cn4ccccc4=O)nc3)c2Cl)C(=O)N1 (centres unmarked)"
  inequality-sign: "="
  DC50 / nM: 741
- compound: "O=C1CCC(c2cccc(-c3cnc(N4C(=O)CCC45CCC5)c(F)c3)c2Cl)C(=O)N1 (centres unmarked)"
  inequality-sign: "="
  DC50 / nM: 55
- compound: "O=C1CCC(c2cccc(-c3ccc(Nc4ccccn4)cc3)c2Cl)C(=O)N1 (centres unmarked)"
  inequality-sign: "="
  DC50 / nM: 14.1
- compound: "O=C1CCC(c2cccc(-c3ccc(N4CCCOC4=O)nc3)c2Cl)C(=O)N1 (centres unmarked)"
  inequality-sign: "="
  DC50 / nM: 542
- compound: "CN1CC(=O)N(Cc2ccc(-c3cccc(C4CCC(=O)NC4=O)c3Cl)cc2)CC12COC2 (centres unmarked)"
  inequality-sign: "="
  DC50 / nM: 28.1
- compound: "CN(C)CCOc1ccc(-c2cccc(C3CCC(=O)NC3=O)c2Cl)cc1 (centres unmarked)"
  inequality-sign: "≥"
  DC50 / nM: 10000
- compound: "O=C1CCC(c2cccc(-c3ccc(OCC4CCOC4)cc3)c2Cl)C(=O)N1 (centres unmarked)"
  inequality-sign: "="
  DC50 / nM: 99.2
- compound: "Cc1cc(-c2cccc(C3CCC(=O)NC3=O)c2Cl)ccc1N (centres unmarked)"
  inequality-sign: "="
  DC50 / nM: 7.27
- compound: "CN1CC(Cc2ccc(-c3cccc(C4CCC(=O)NC4=O)c3Cl)cc2)OC1=O (centres unmarked)"
  inequality-sign: "="
  DC50 / nM: 140
- compound: "O=C1CN(CCOc2ccc(-c3cccc(C4CCC(=O)NC4=O)c3Cl)cc2)CCN1 (centres unmarked)"
  inequality-sign: "="
  DC50 / nM: 11
- compound: "Cn1cncc1COc1ccc(-c2cccc(C3CCC(=O)NC3=O)c2Cl)cc1 (centres unmarked)"
  inequality-sign: "="
  DC50 / nM: 13.6
- compound: "Cn1cc(CNc2ccc(-c3cccc(C4CCC(=O)NC4=O)c3Cl)cc2)cn1 (centres unmarked)"
  inequality-sign: "="
  DC50 / nM: 13.3
- compound: "Cc1nn(C)c2c1N(c1ccc(-c3cccc(C4CCC(=O)NC4=O)c3Cl)cc1)C(=O)CO2 (centres unmarked)"
  inequality-sign: "="
  DC50 / nM: 3.17
- compound: "O=C1CCC(c2cccc(-c3ccc(Cc4ncco4)cc3)c2Cl)C(=O)N1 (centres unmarked)"
  inequality-sign: "="
  DC50 / nM: 8.25
- compound: "O=C1CCC(c2cccc(-c3ccc(-n4c(C(F)F)cccc4=O)cc3)c2Cl)C(=O)N1 (centres unmarked)"
  inequality-sign: "="
  DC50 / nM: 2.24
- compound: "CC1CCN(c2ccc(-c3cccc(C4CCC(=O)NC4=O)c3Cl)cc2)C1=O (centres unmarked)"
  inequality-sign: "="
  DC50 / nM: 274
- compound: "Cn1ccc(COc2ccc(-c3cccc(C4CCC(=O)NC4=O)c3Cl)c(Cl)c2)n1 (centres unmarked)"
  inequality-sign: "≥"
  DC50 / nM: 10000
